Test system: HL-60
Test: Antiproliferative activity against human HL60 cells by MTT assay
Format: functional, cell-based
pIC50: −log10 of the molar value.
PROPERTY: pIC50

{"columns": ["COMPOUND", "pIC50"],
 "data": [
  ["Cc1c2ccncc2c(C)c2c1[nH]c1ccccc12", "5.46 to 5.77"]
]}

Here's the next entry for you.
Item under review: CC1CCCCN1C(=O)c1cccc(-n2cc(CO[C@H]3O[C@@H]4O[C@@]5(C)CC[C@H]6[C@H](C)CC[C@@H]([C@H]3C)[C@@]46OO5)nn2)c1 (stereo partly drawn) . Reported pIC50? 3.75 to 5.60
